TARGET_OR_SYSTEM: UniProtKB P43403
TEST_PROTOCOL: DELFIA assay (ZAP-70 kinase, phosphorylation of biotinylated poly(glu,tyr))
Format: biochemical
CONDITION_INFO: ZAP-70 DELFIA, class symbols; read-out: Activity (IC50 in vitro)
# maps each entry to its IC50

Sample records with IC50:
- CN(C)CCN1CCN(c2ccc(Cc3cc(C(=O)N4CCCC4CN4CCCC4)c4cc(-c5ccc6c(c5)OCO6)ccc4n3)cc2)CC1 (stereo not shown): < 1 µM
- CC(Nc1cc(C(=O)N2CCC[C@H]2CN2CCCC2)c2cc(-c3ccc(C#N)cc3)ccc2n1)c1ccc2ccccc2c1 (stereo partly shown): > 10 µM
- C[C@@H](Nc1cc(C(=O)N2CCC[C@H]2CN2CCCC2)c2cc(-c3ccc(C#N)cc3)ccc2n1)[C@@H](O)c1ccccc1: > 10 µM
- O=C(c1cc(Nc2ccc(F)cc2)nc2ccc(-c3ccc4c(c3)OCO4)cc12)N1CCC[C@H]1CN1CCCC1: < 1 µM
- O=C(c1cc(NCc2ccc(C(F)(F)F)cc2)nc2ccc(-c3ccc(SC(F)(F)F)cc3)cc12)N1CCC[C@H]1CN1CCCC1: > 10 µM

Consider the compound O=C(c1cc(Cl)nc(Cl)c1)N1CCC[C@H]1CN1CCCC1 and give its measured IC50.
> 10 µM

For N#Cc1ccc(-c2ccc3nc(NCc4cccs4)cc(C(=O)N4CCC[C@H]4CN4CCCC4)c3c2)cc1 , what is its reported IC50?
> 10 µM

Reported IC50, compound O=C(c1cc(Sc2ccc(OC(F)(F)F)cc2)nc2ccc(-c3ccc4c(c3)OCO4)cc12)N1CCC[C@H]1CN1CCCC1 : ____
< 1 µM

# IC50 lookup, item N#Cc1ccc(-c2ccc3nc(NCc4cc(C(F)(F)F)ccc4F)cc(C(=O)N4CCC[C@H]4CN4CCCC4)c3c2)cc1
> 10 µM

# input compound: O=C(c1cc(N2CCN(C3CCCC3)CC2)nc2ccc(-c3ccc4c(c3)OCO4)cc12)N1CCC[C@H]1CN1CCCC1 ; wanted: its IC50
1 to 10 µM

If you can, please state the reported IC50 value of CN(CCc1ccccc1)c1cc(C(=O)N2CCC[C@H]2CN2CCCC2)cc(/C=C/c2ccccc2)n1 .
1 to 10 µM

----------
TARGET_OR_SYSTEM: ZAP-70 (Homo sapiens, UniProt P43403)
Sequence (P43403 1-619): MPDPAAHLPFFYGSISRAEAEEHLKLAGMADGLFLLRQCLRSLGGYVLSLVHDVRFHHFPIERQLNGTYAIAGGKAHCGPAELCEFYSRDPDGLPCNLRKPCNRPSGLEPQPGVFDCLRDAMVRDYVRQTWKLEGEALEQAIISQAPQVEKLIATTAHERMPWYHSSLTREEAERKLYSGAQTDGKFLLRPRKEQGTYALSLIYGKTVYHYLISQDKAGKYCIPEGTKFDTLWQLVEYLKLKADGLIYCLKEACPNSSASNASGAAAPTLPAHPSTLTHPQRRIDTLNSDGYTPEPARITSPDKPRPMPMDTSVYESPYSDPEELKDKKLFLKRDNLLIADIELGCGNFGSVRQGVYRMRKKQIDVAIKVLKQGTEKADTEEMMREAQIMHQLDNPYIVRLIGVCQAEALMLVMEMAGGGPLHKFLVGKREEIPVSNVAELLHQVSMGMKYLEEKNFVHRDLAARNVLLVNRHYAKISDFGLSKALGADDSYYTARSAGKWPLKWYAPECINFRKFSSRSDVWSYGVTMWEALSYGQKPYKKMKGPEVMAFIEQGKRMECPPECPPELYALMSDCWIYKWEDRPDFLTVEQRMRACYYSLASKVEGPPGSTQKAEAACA
TEST_PROTOCOL: DELFIA assay (ZAP-70 kinase, phosphorylation of biotinylated poly(glu,tyr))
Type: biochemical
CONDITION_INFO: ZAP-70 DELFIA, class symbols; read-out: Activity (IC50 in vitro)
Item-by-item account of IC50

• N#Cc1ccc(-c2ccc3nc(NCc4ccccc4OC(F)(F)F)cc(C(=O)N4CCC[C@H]4CN4CCCC4)c3c2)cc1 [Compound 236] = > 10 µM
• N#Cc1ccc(-c2ccc3nc(NCCc4ccccc4)cc(C(=O)N4CCC[C@H]4CN4CCCC4)c3c2)cc1 [Compound 170] = > 10 µM
• CC(Nc1cc(C(=O)N2CCC[C@H]2CN2CCCC2)c2cc(-c3ccc(C#N)cc3)ccc2n1)c1ccc(F)cc1 (stereo partly shown) [Compound 223] = > 10 µM
• O=C(c1cc(NCc2ccc(C(F)(F)F)cc2)nc2ccc(-c3ccc(C4CCNC[C@H]4O)cc3)cc12)N1CCC[C@H]1CN1CCCC1 (stereo partly shown) [Compound 426] = > 10 µM
• Cc1ccccc1CNc1cc(C(=O)N2CCC[C@H]2CN2CCCC2)c2cc(-c3ccc(C#N)cc3)ccc2n1 [Compound 172] = > 10 µM
• COc1cccc(Nc2cc(C(=O)N3CCC[C@H]3CN3CCCC3)c3cc(-c4ccc5c(c4)OCO5)ccc3n2)c1 [Compound 17] = < 1 µM
• N#Cc1ccc(-c2ccc3nc(N(CCO)Cc4ccccc4)cc(C(=O)N4CCC[C@H]4CN4CCCC4)c3c2)cc1 [Compound 212] = > 10 µM
• N#Cc1ccc(-c2ccc3nc(NCc4cccc(OC(F)F)c4)cc(C(=O)N4CCC[C@H]4CN4CCCC4)c3c2)cc1 [Compound 319] = < 1 µM
• N#Cc1ccc(-c2ccc3nc(NCc4ccccc4C(F)(F)F)cc(C(=O)N4CCC[C@H]4CN4CCCC4)c3c2)cc1 [Compound 164] = > 10 µM
• CN(C)c1cc(C(=O)N2CCC[C@H]2CN2CCCC2)c2cc(-c3ccc4c(c3)OCO4)ccc2n1 [Compound 59] = 1 to 10 µM

Form field: reported IC50 of N#Cc1ccc(-c2ccc3nc(NCc4c(F)cccc4F)cc(C(=O)N4CCC[C@H]4CN4CCCC4)c3c2)cc1 [Compound 312]
1 to 10 µM

----------
TARGET_OR_SYSTEM: ZAP-70 (Homo sapiens, UniProt P43403)
TEST_PROTOCOL: DELFIA assay (ZAP-70 kinase, phosphorylation of biotinylated poly(glu,tyr))
Assay type: biochemical
CONDITION_INFO: ZAP-70 DELFIA, class symbols; read-out: Activity (IC50 in vitro)
As shown below, each of these compounds has a reported IC50 value.

IC50 lookup needed for NCc1ccc(CNc2cc(C(=O)N3CCC[C@H]3CN3CCCC3)c3cc(-c4ccc5c(c4)OCO5)ccc3n2)cc1 , thanks.
< 1 µM

Consider the compound shown here: O=C(c1cc(N(CCO)Cc2ccccc2)nc2ccc(-c3ccc4c(c3)OCO4)cc12)N1CCC[C@H]1CN1CCCC1 What is its recorded IC50?
< 1 µM

Returns the measured IC50 for the input compound. Input: CN(CCc1ccccc1)c1cc(C(=O)N2CCC[C@H]2CN2CCCC2)c2cc(-c3ccc(C#N)cc3)ccc2n1
> 10 µM

Param item = O=C(c1cc(Nc2cccc(C3CCNC[C@@H]3O)c2)nc2ccc(-c3ccc4c(c3)OCO4)cc12)N1CCCC1CN1CCCC1 (some centres unmarked) ; retrieve measured IC50.
< 1 µM

Data request, read-out IC50, for O=C(c1cc(NCc2ccc(C(F)(F)F)cc2)nc2ccc(-c3nc(Cl)ns3)cc12)N1CCC[C@H]1CN1CCCC1
> 10 µM

For O=C(c1cc(NCc2ccc(C(F)(F)F)cc2)ncc1Cl)N1CCC[C@H]1CN1CCCC1 , what is its reported IC50?
> 10 µM

Tell me the measured IC50 of COc1ccccc1CNc1cc(C(=O)N2CCC[C@H]2CN2CCCC2)c2cc(-c3ccc(C#N)cc3)ccc2n1 , please.
> 10 µM

I am curious: what IC50 value has been reported for O=C(c1cc(NCc2ccc(C(F)(F)F)cc2)nc2ccc(-c3ccc4occc4c3)cc12)N1CCC[C@H]1CN1CCCC1 ?
< 1 µM

----------
Listed below: IC50 values for each entry.
TARGET_OR_SYSTEM: ZAP-70 (Homo sapiens)
TEST_PROTOCOL: DELFIA assay (ZAP-70 kinase, phosphorylation of biotinylated poly(glu,tyr))
Assay type: biochemical
CONDITION_INFO: ZAP-70 DELFIA, class symbols; read-out: Activity (IC50 in vitro)

Example cases with answers are listed next.
• O=C(c1cc(CCc2ccc(F)cc2)nc2ccc(-c3ccc4c(c3)OCO4)cc12)N1CCC[C@H]1CN1CCCC1 = 1 to 10 µM
• COc1ccc(CCc2cc(C(=O)N3CCC[C@H]3CN3CCCC3)c3cc(-c4ccc5c(c4)OCO5)ccc3n2)cc1 = > 10 µM
• O=C(c1cc(NCc2cccnc2)nc2ccc(-c3ccc4c(c3)OCO4)cc12)N1CCC[C@H]1CN1CCCC1 = 1 to 10 µM
• O=C(c1cc(NCc2ccc(C(F)(F)F)cc2)nc2c(Cl)cc(-c3ccc4c(c3)OCO4)cc12)N1CCC[C@H]1CN1CCCC1 = < 1 µM
• N#Cc1ccc(-c2ccc3nc(NCc4cccc(C(F)(F)F)c4F)cc(C(=O)N4CCC[C@H]4CN4CCCC4)c3c2)cc1 = > 10 µM

Param readout = IC50; param system = ZAP-70 (Homo sapiens); param query = N#Cc1ccc(-c2ccc3nc(N4CCCC4Cc4ccccc4)cc(C(=O)N4CCC[C@H]4CN4CCCC4)c3c2)cc1 (stereo partly shown) ; response: value
> 10 µM

Which measured IC50 belongs to O=C(c1cc(NCc2ccc(C(F)(F)F)cc2)nc2ccc(/C=C/c3cccc(C(F)(F)F)c3)cc12)N1CCC[C@H]1CN1CCCC1 , tested on ZAP-70 (Homo sapiens)?
1 to 10 µM

Query for ZAP-70 (Homo sapiens): what IC50 does the record show for N#Cc1ccc(-c2ccc3nc(NCCc4ccc(Br)cc4)cc(C(=O)N4CCC[C@H]4CN4CCCC4)c3c2)cc1 ?
> 10 µM

Lab request: please report IC50 under test system ZAP-70 (Homo sapiens) for N#Cc1ccc(-c2ccc3nc(N4CCC(c5ccccc5)C4)cc(C(=O)N4CCC[C@H]4CN4CCCC4)c3c2)cc1 (stereo partly shown)
> 10 µM

Identify the measured IC50 of O=C(c1cc(-c2ccc(F)c(Cl)c2)nc2ccc(-c3ccc(F)c(Cl)c3)cc12)N1CCC[C@H]1CN1CCCC1 for ZAP-70 (Homo sapiens).
1 to 10 µM
